System: A549
ASSAY_REMARKS: Cytotoxicity was evaluated against A549 non-small cell lung carcinoma human cancer cell line
Assay type: functional, cell-based
PROPERTY_NAME: pIC50
Formally, pIC50 is defined as -log10 of the concentration c, with c in mol/L.

A selection of reference data follows.
Prompt line: Endpoint output: pIC50 of COC(=O)O[C@H]1C(=O)[C@@]2(C)[C@H]([C@H](OC(=O)c3ccccc3)[C@]3(O)C[C@H](OC(=O)[C@H](O)[C@@H](NC(=O)OC(C)(C)C)C(F)(F)F)C(C)=C1C3(C)C)[C@]1(OC(C)=O)CO[C@@H]1C[C@@H]2O . Value?
Response line: 9.70

Prompt line: // returns reported pIC50 for input CC(=O)O[C@@]12CO[C@@H]1C[C@H](O)[C@@]1(C)C(=O)[C@H](O)C3=C(C)[C@@H](OC(=O)[C@H](O)[C@@H](NC(=O)OC(C)(C)C)C(F)(F)F)C[C@@](O)([C@@H](OC(=O)c4ccccc4)[C@H]21)C3(C)C
Response line: 9.36

Prompt line: Find the recorded pIC50 belonging to CCCCC(=O)O[C@H]1C(=O)[C@@]2(C)[C@H]([C@H](OC(=O)c3ccccc3)[C@]3(O)C[C@H](OC(=O)[C@H](O)[C@@H](NC(=O)OC(C)(C)C)C(F)(F)F)C(C)=C1C3(C)C)[C@]1(OC(C)=O)CO[C@@H]1C[C@@H]2O and report it.
Response line: 9.10

# evaluate next
Prompt line: // query pIC50 value for entry CC(=O)O[C@H]1C(=O)[C@@]2(C)[C@H]([C@H](OC(=O)c3ccccc3)[C@]3(O)C[C@H](OC(=O)[C@H](O)[C@@H](NC(=O)OC(C)(C)C)C(F)(F)F)C(C)=C1C3(C)C)[C@]1(OC(C)=O)CO[C@@H]1C[C@@H]2O
Response line: 9.70

====

Recorded IC50, one value per entry.
Test system: A549
ASSAY_REMARKS: Cytotoxicity was evaluated against A549 non-small cell lung carcinoma human cancer cell line
Type: functional, cell-based
Response body: numeric value in nM, unit text excluded.

Completed entries (count: 4):
Prompt line: Quick one: IC50 for CCC(=O)O[C@H]1C(=O)[C@@]2(C)[C@H]([C@H](OC(=O)c3ccccc3)[C@]3(O)C[C@H](OC(=O)[C@H](O)[C@@H](NC(=O)OC(C)(C)C)C(F)(F)F)C(C)=C1C3(C)C)[C@]1(OC(C)=O)CO[C@@H]1C[C@@H]2O ?
Response line: 0.3

Prompt line: So what's the measured IC50 for this one? CC(=O)O[C@@]12CO[C@@H]1C[C@H](O)[C@@]1(C)C(=O)[C@H](OC(=O)N3CCOCC3)C3=C(C)[C@@H](OC(=O)[C@H](O)[C@@H](NC(=O)OC(C)(C)C)C(F)(F)F)C[C@@](O)([C@@H](OC(=O)c4ccccc4)[C@H]21)C3(C)C
Response line: 0.4

Prompt line: IC50 for CC(=O)O[C@@]12CO[C@@H]1C[C@H](O)[C@@]1(C)C(=O)[C@H](OC(=O)C3CC3)C3=C(C)[C@@H](OC(=O)[C@H](O)[C@@H](NC(=O)OC(C)(C)C)C(F)(F)F)C[C@@](O)([C@@H](OC(=O)c4ccccc4)[C@H]21)C3(C)C ?
Response line: 0.4

Prompt line: Any idea what IC50 was measured for CC(=O)O[C@@]12CO[C@@H]1C[C@H](O)[C@@]1(C)C(=O)[C@H](OC(=O)CC(C)(C)C)C3=C(C)[C@@H](OC(=O)[C@H](O)[C@@H](NC(=O)OC(C)(C)C)C(F)(F)F)C[C@@](O)([C@@H](OC(=O)c4ccccc4)[C@H]21)C3(C)C ?
Response line: 0.5

New cases:
Prompt line: Suppose we examine the compound CC(=O)O[C@@]12CO[C@@H]1C[C@H](O)[C@@]1(C)C(=O)[C@H](OC(=O)N(C)C)C3=C(C)[C@@H](OC(=O)[C@H](O)[C@@H](NC(=O)OC(C)(C)C)C(F)(F)F)C[C@@](O)([C@@H](OC(=O)c4ccccc4)[C@H]21)C3(C)C ; what IC50 value has been reported?
Response line: 0.2
